The reported numbers originate from patent US20030235852A1.

# ASSAY TARGET: penicillin-binding protein 2a (PBP2a), truncated, recombinant from E. coli (Staphylococcus aureus (methicillin-resistant, MRSA))
# ASSAY OVERVIEW: relative IC50: competition with biotinylated ampicillin for PBP2a, SDS-PAGE and streptavidin-HRP blot
MEASURE NAME: IC50

q: Entry under review: LRNSNC(COOH)IRHFF (residues 2-12 of SEQ ID NO: 5), peptide derivatized with bromoacetic acid . Reported IC50?
a: > 35 mM

* * *

# ASSAY TARGET: PBP2a (Staphylococcus aureus)
# Construct: The truncated PBP2a gene (Roychoudhury et al., J. Biol. Chem. 269:112067-12073, 1994) (cleaved yes); made in house; host or cells: E. coli BL21(DE3)
# ASSAY OVERVIEW: biochemical
# Type: biochemical
MEASURE NAME: pIC50
Numbers only, as −log10 of the molar value.

q: Entry under review: CO/N=C(\C(=O)N[C@@H]1C(=O)N2C(C(=O)O)=C(COC(C)=O)CS[C@H]12)c1csc(N)n1 [cefotaxime, reference compound] . Reported pIC50?
a: 2.54
